The measurements presented in this section are drawn from PubChem BioAssay AID652197.

TEST TARGET: Endoplasmic reticulum aminopeptidase 1 (Homo sapiens) (UniProt Q9NZ08)
Sequence (Q9NZ08 whole entry, looked up): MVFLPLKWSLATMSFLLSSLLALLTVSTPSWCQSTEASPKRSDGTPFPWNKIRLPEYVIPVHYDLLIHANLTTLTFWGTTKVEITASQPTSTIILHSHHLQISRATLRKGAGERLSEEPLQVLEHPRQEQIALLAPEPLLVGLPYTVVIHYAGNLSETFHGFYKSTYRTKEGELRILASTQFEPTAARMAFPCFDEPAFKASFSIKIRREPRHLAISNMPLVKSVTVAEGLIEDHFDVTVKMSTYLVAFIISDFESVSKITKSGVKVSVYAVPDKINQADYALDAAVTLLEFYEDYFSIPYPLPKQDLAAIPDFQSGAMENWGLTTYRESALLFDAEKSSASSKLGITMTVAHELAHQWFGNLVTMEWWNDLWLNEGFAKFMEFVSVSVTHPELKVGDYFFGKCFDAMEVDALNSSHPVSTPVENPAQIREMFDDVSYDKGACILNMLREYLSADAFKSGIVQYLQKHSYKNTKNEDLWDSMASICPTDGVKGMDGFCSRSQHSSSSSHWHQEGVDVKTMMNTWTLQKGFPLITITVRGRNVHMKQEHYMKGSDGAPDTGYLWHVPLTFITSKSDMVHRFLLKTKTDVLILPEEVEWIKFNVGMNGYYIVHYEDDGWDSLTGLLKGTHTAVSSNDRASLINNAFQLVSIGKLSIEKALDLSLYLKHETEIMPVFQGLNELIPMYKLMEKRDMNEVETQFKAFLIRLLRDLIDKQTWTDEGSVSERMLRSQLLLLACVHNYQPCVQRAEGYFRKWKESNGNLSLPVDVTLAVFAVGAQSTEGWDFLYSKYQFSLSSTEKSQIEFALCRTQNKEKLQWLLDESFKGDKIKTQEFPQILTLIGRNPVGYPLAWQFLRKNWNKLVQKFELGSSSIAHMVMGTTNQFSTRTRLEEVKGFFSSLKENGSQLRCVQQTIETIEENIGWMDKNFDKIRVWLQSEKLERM
TEST: inhibition of ERAP1 peptide trimming enzyme – biochemical, single point, plate reader, primary screen (AID 652197);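 further: 0% = neutral control wells and 100% = L-leucinethiol positive control wells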
CONDITION SET: recombinant ERAP1, Leu-AMC fluorescence, 60 min; at 10.7 µM; active compounds read high
Hit rate of the full screen: of about 340,000 compounds, about 500 (0.15%) were called active. What follows is part of a selection rich in actives, with near analogues and random picks from the rest.
// reported inhibition per item
REPORTED PROPERTY: inhibition (%)

C[C@@H]1CN([C@H](C)CO)C(=O)c2cc(NS(C)(=O)=O)ccc2O[C@H]1CN(C)C(=O)Nc1cccc2ccccc12 = 0.237
CO[C@H]1CN(C)C(=O)c2ccc(NC(=O)CC(F)(F)F)cc2OC[C@H](C)N(C(=O)C2CC2)C[C@H]1C = 1.15
CC(=O)N1Cc2cc(C(=O)NCc3cc(F)cc(F)c3)nc(-c3cccc(C4=CCCC4)c3)c2[C@@H]1CCO = 3.25
C[C@@H]1CCCCO[C@@H](CN(C)Cc2ccc3c(c2)OCO3)[C@@H](C)CN([C@@H](C)CO)C(=O)c2cc(NC(=O)C3CCCCC3)ccc2O1 = -1.88
Cc1nnc(Sc2nc3c(c(=O)[nH]c(=O)n3C)n2Cc2ccccc2)s1 = -0.766
O=C(Cc1ccccn1)N[C@H]1CC[C@H](CCn2cc(-c3ccc(F)cc3)nn2)O[C@H]1CO = -3.36
Cc1noc(C)c1NC(=O)N(C)C[C@@H]1OCCCC[C@H](C)Oc2ccc(NC(=O)C3CCCCC3)cc2C(=O)N([C@H](C)CO)C[C@@H]1C = 1.95
CCN(CC)CCn1cnc2c1c(=O)[nH]c(=O)n2Cc1ccccc1 = -0.129

###

TEST TARGET: Endoplasmic reticulum aminopeptidase 1 (Homo sapiens)
TEST: inhibition of ERAP1 peptide trimming enzyme – biochemical, single point, plate reader, primary screen (AID 652197);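 further: 0% = neutral control wells and 100% = L-leucinethiol positive control wells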
CONDITION SET: recombinant ERAP1, Leu-AMC fluorescence, 60 min; at 10.7 µM; active compounds read high
About 500 (0.15%) of roughly 340,000 compounds were called active. Shown is part of a subset that was picked to be rich in actives.
inhibition for assorted molecules
REPORTED PROPERTY: inhibition (%)

Cc1ccc(CCCOC(=O)C[N+]2(C)CCCC2)cc1 = 106
COc1ccc(CCn2c(=N)c(C(=O)NCC3CCCO3)cc3c(=O)n4cccc(C)c4nc32)cc1OC (configuration not stated) = 1.75
Cc1ccc2[nH]c(=O)c(CN(C)S(=O)(=O)c3cccc4nonc34)cc2c1 = 0.344
NCC[C@H]1CC[C@H](NC(=O)C2CC2)[C@@H](CO)O1 = 2.22
O=C(N[C@H]1CC[C@@H](CCNS(=O)(=O)c2ccccc2)O[C@H]1CO)c1cccnc1 = -2.04
Cc1ccc(COC(=O)CN2C(=O)NC3(CCCC3)C2=O)cc1 = -3.32
COc1ccc(C(=O)NCc2nnc(SCCOc3ccccc3)n2C)cc1 = 31.3
CCNC(=O)Nc1ccc2c(c1)C(=O)N(C)[C@H]1CC[C@@H](CC(=O)N[C@@H](C)c3ccccc3)O[C@H]1CO2 = -1.42
Cc1ccc2nc3c(cc(C(=O)NCCc4ccccc4)c(=N)n3CC3CCCO3)c(=O)n2c1 (configuration not stated) = -79.5
Cc1ccccc1S(=O)(=O)N1[C@H](C#N)[C@H](c2ccccc2)[C@@H]1CO = 1.23
COc1ccc2c3c([nH]c2c1)[C@@H](CO)N(S(C)(=O)=O)CC31CN(CC2CC2)C1 = -2.67
O=C(NC1=CC(=O)c2ccccc2C1=O)c1ccccc1 = 2.97
C/C=C/c1ccc([C@H]2[C@H](CO)N(C(=O)CN(C)C)C23CN(C(=O)C2CC2)C3)cc1 = -1.65
O=C(C1CCC1)N1CC(=O)N2[C@H](C1)[C@@H](c1ccc(-c3ccccc3F)cc1)[C@@H]2CO = -0.661
COc1ccc2sc(-c3ccc(N(C)C)cc3)c(C#CCO)c2c1 = 0.776
O=C(O)c1[nH]c2ccccc2c1C(c1cccc(O)c1)c1c(C(=O)O)[nH]c2ccccc12 = 34.8
O=C(O)C[C@@H]1C[C@@H]2c3cc(NC(=O)NC4CCCC4)ccc3O[C@@H]2[C@H](CO)O1 = 0.604
CCC(=O)N(CCc1ccccc1)Cc1cc2cc(C)ccc2[nH]c1=O = -2.61
C[C@H]([C@@H](O)[C@@H](O)[C@@H](C)C(C)(C)C)[C@H]1CC[C@H]2C3CC[C@H]4C[C@H](OS(=O)(=O)O)[C@@H](OS(=O)(=O)O)C[C@]4(C)[C@H]3CC[C@]12C (some centres not stated) = 51.7
Cc1ccc(CNC(=O)COC(=O)C2CCC2)cc1 = 1.31
Cc1nc2ccc(N)nc2nc1C = 31.2
O=C(NC1Cc2ccccc2C1)[C@H]1[C@H](CO)[C@H]2Cn3c(ccc(C4=CCCCC4)c3=O)[C@H]2N1CC1CC1 = -5.27
O=C(OCC(=O)N1CCN(C(=O)c2ccco2)CC1)c1ccc(Cl)c(Cl)c1 = 0.999
COc1ccc(C(=O)NCc2nnc(SCC(=O)NC3=NCCS3)n2C)cc1 = 1.94
CC(C)NC(=O)N1[C@H](CO)[C@H](c2ccccc2)C12CN(C(=O)Cc1cccnc1)C2 = 0.883
CO[C@@H]1CN(C)C(=O)c2cc(NC(=O)NC3CCCC3)ccc2OC[C@H](C)NC[C@H]1C = 1.04
Cc1cccn2c(=O)c3cc(C(=O)NCCN4CCOCC4)c(=N)n(Cc4cccnc4)c3nc12 = 54.5
O=C(C[C@@H]1CC[C@H](NC(=O)NC2CCCCC2)[C@H](CO)O1)NCc1ccc(F)cc1 = 0.011
COc1ccccc1S(=O)(=O)N[C@@H]1CC[C@H](CC(=O)N2CCOCC2)O[C@@H]1CO = -0.783
CC(C)NC(=O)N1CCCCN2[C@@H](CO)[C@@H](c3ccc(C#Cc4ccccc4)cc3)[C@@H]2C1 = 0.974
O=C(N[C@H]1C=C[C@@H](CC(=O)N2CCc3ccccc3C2)O[C@@H]1CO)C1CCOCC1 = -0.073
COc1ccc2c3c(n(C)c2c1)[C@@H](CO)N(C(=O)Nc1cccc(F)c1)CC31CCN(Cc2nccs2)CC1 = -1.39
CCCNC(=O)Nc1ccc2c(c1)OC[C@H](C)N(C(=O)C1CCC1)C[C@H](C)[C@@H](OC)CN(C)C2=O = 2.58
O=C(C[C@H]1CC[C@H]2NC[C@@H](O)COC[C@@H]2O1)NCCN1CCCC1 = 1.06
O=C1C(Cl)=C(Oc2ccccc2)C(=O)c2ccccc21 = 4.33
O=C(NCC[C@@H]1CC[C@@H](NS(=O)(=O)c2ccc(Cl)cc2)[C@@H](CO)O1)c1ccccc1F = -2.75
C[C@H](CO)N1C[C@H](C)[C@H](CN(C)C(=O)c2ccccc2)OCCCC[C@H](C)Oc2ccc(N(C)C)cc2C1=O = 1.85

###

TEST TARGET: Endoplasmic reticulum aminopeptidase 1 (Homo sapiens) (UniProt Q9NZ08)
TEST: inhibition of ERAP1 peptide trimming enzyme – biochemical, single point, plate reader, primary screen (AID 652197);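 further: 0% = neutral control wells and 100% = L-leucinethiol positive control wells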
CONDITION SET: recombinant ERAP1, Leu-AMC fluorescence, 60 min; at 10.7 µM
Screen size: about 340,000 compounds; about 500 (0.15%) were called active.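 How the source made its calls: active means mean replicate inhibition of at least 30%, or all replicates individually reaching that 30% level; inactive means mean below 30% and not every replicate reaching it.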 The sample as a whole holds a higher share of actives than the screen did.
Classes used: Y = active, N = inactive

COc1ccc2c3c([nH]c2c1)[C@H](CO)N(C(=O)C1CCC1)CC31CCN(Cc2cccc(F)c2)CC1 = N
CCCN1C[C@H](C)[C@@H](OC)CN(C)C(=O)c2ccc(NC(=O)C3CCOCC3)cc2OC[C@@H]1C = N
O=C(Cc1ccccc1)N1C[C@@H]2[C@H](c3ccccc31)[C@@H](CO)N2C(=O)C1CCOCC1 = N
CNC(=O)C[C@H]1CC[C@@H]2[C@H](COc3ccc(NC(=O)Nc4ccc(F)c(F)c4)cc3C(=O)N2C)O1 = N
C[C@@H]1CN([C@H](C)CO)C(=O)Cc2cc(NC(=O)CCC(F)(F)F)ccc2O[C@@H]1CN(C)CC1CCCCC1 = N
O=C(C[C@H]1CC[C@H]2[C@@H](COC[C@@H](O)CN2CC2CCCC2)O1)NCC1CC1 = N
CO[C@@H]1CN(C)C(=O)c2cc(NC(=O)C3CCOCC3)ccc2OC[C@H](C)N(Cc2cccnc2)C[C@H]1C = N
CN1CCN(C(=O)C[C@H]2CC[C@H]3[C@@H](COC[C@H](O)CN3CC3CCCC3)O2)CC1 = N
Cc1ccc(-c2ccccc2[C@H]2[C@@H](C#N)N(c3ncc(-c4ccccc4)s3)[C@@H]2CO)cc1 = N
C[C@H]1CCCCO[C@H](CN(C)C(=O)NC2CCCCC2)[C@@H](C)CN([C@@H](C)CO)C(=O)c2cc(NC(=O)Nc3ccc4c(c3)OCO4)ccc2O1 = N
C/C=C/c1ccc2c(c1)O[C@H](CN(C)Cc1cccc(F)c1)[C@H](C)CN([C@H](C)CO)S2(=O)=O = N
C[C@@H]1CN([C@H](C)CO)C(=O)c2cc(NC(=O)c3ccncc3)ccc2O[C@@H](C)CCCCO[C@@H]1CN(C)CC1CC1 = N
C[C@@H]1CCCCO[C@H](CN(C)C(=O)c2ccccc2)[C@H](C)CN([C@@H](C)CO)C(=O)c2cc(NC(=O)Nc3ccc4c(c3)OCO4)ccc2O1 = N
COc1ccccc1C#Cc1ccc([C@@H]2[C@H](CO)N3CCCCN(CCC(F)(F)F)C[C@@H]23)cc1 = N
CCC(CC)NC(=O)/C=C/c1cccc([N+](=O)[O-])c1 = N
O=C(CCN1CCCCC1)NCC[C@H]1CC[C@@H](NC(=O)C2CCOCC2)[C@H](CO)O1 = N
O=C(C[C@@H]1C=C[C@H](NC(=O)Nc2ccccc2F)[C@H](CO)O1)NCc1ccc(F)cc1 = N
O=C(NCC1CC1)[C@@H]1[C@@H](CO)[C@@H]2Cn3c(ccc(C4=CCCC4)c3=O)[C@H]1N2CCC(F)(F)F = N
CCCNC(=O)Nc1ccc2c(c1)C(=O)N(C)C[C@H](OC)[C@H](C)CN[C@@H](C)CO2 = N
COc1ccc(-c2ccc([C@@H]3[C@H](CN(C)S(C)(=O)=O)N[C@@H]3CO)cc2)cc1 = N
CC(C)C#Cc1cnc2c(c1)C(=O)N([C@H](C)CO)C[C@H](C)[C@@H](CN(C)C(=O)Nc1cc(F)ccc1F)O2 = N
O=C(c1ccc(F)cc1)N1CC(=O)N2[C@@H](CO)[C@@H](c3ccc(C#Cc4ccc(F)cc4)cc3)[C@@H]2C1 = N
Cc1noc(C)c1NC(=O)N(C)C[C@@H]1OCCCC[C@H](C)Oc2ccc(NS(=O)(=O)c3c(C)noc3C)cc2C(=O)N([C@@H](C)CO)C[C@@H]1C = N
CN(C)Cc1cn(CC[C@H]2CC[C@@H](NS(=O)(=O)c3ccccc3)[C@H](CO)O2)nn1 = N
O=C(C[C@@H]1CC[C@H](NC(=O)CN2CCOCC2)[C@@H](CO)O1)NCCc1ccccc1 = N
O=C(O)CSc1ccc(S(=O)(=O)N2CCCC2)cn1 = N
Cn1c(=O)[nH]c(=O)c2c1[nH]c(=S)n2Cc1ccccc1 = Y
Cc1ccc(S(=O)(=O)Nc2ccc3c(c2)C(=O)N([C@@H](C)CO)C[C@@H](C)[C@H](CN(C)C(=O)NC(C)C)OCCCC[C@H](C)O3)cc1 = N
COc1ccccc1S(=O)(=O)N[C@@H]1C=C[C@H](CC(=O)NCc2cccc(F)c2)O[C@H]1CO = N
C/C=C/c1ccc([C@H]2[C@@H](CO)N(C(=O)CN(C)C)C23CN(C(=O)C2CCCC2)C3)cc1 = N
O=C(CCN1CCCCC1)NCC[C@@H]1CC[C@H](NS(=O)(=O)c2cccc(Cl)c2)[C@H](CO)O1 = N
CCC(=O)N1[C@H](C(=O)NC2CCC2)[C@@H](CO)[C@@H]2Cn3c(cccc3=O)[C@@H]21 = N
